- Test system: ATP;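 note: ATP exposure 15 min at 22 °C before imaging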
- assay-explanation: switch fluorescence ratio, 500 uM ATP over buffer (Cy3 cluster intensity, sum of 5 cycles each) (fold (ratio)); higher = stronger signal-on switching upon ATP binding; sequences stand for … in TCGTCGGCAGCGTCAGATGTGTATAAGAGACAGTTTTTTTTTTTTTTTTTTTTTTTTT…TC
- condition-info: aptamer strand: ATP DNA aptamer (quencher-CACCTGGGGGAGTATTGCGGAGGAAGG + anchor), 100 nM annealed; ATP concentration: 500 uM

item-sequence: TTCATAGTGA
switch fluorescence ratio: 0.95
//
item-sequence: AGTTTACGTG
switch fluorescence ratio: 1
//
item-sequence: ATTTGCGAGG
switch fluorescence ratio: 1.01
//
item-sequence: CCGAACTGAT
switch fluorescence ratio: 1.13
//
item-sequence: CAGGGTACGG
switch fluorescence ratio: 1.01
//
item-sequence: TTGAGGATTG
switch fluorescence ratio: 1
//
item-sequence: GATATCCGTT
switch fluorescence ratio: 0.976
//
item-sequence: AGGACTGTGT
switch fluorescence ratio: 1.02
//
item-sequence: ATATGTTGAA
switch fluorescence ratio: 1.02
//
item-sequence: GAATGTTCTG
switch fluorescence ratio: 0.996
//
item-sequence: AGGCAAAGCA
switch fluorescence ratio: 1.05
//
item-sequence: ATTGCAGGTT
switch fluorescence ratio: 0.965
//
item-sequence: TAAACACGTG
switch fluorescence ratio: 0.987
//
item-sequence: TAAAGGGAGC
switch fluorescence ratio: 1.12
//
item-sequence: TCTATGGGGT
switch fluorescence ratio: 1
//
item-sequence: TGGGTATTCG
switch fluorescence ratio: 0.967
//
item-sequence: GGGTGTTTGC
switch fluorescence ratio: 1.02
//
item-sequence: TGGTTGTTGC
switch fluorescence ratio: 0.998
//
item-sequence: TAAAGCATGG
switch fluorescence ratio: 0.98
//
item-sequence: GGGGCTGCGG
switch fluorescence ratio: 0.973
//
item-sequence: CTATCGTGGT
switch fluorescence ratio: 0.955
//
item-sequence: TGGTGGAGAT
switch fluorescence ratio: 1.01
//
item-sequence: AAGTAATGCG
switch fluorescence ratio: 1.04
//
item-sequence: GAACGGGGGG
switch fluorescence ratio: 0.962
//
item-sequence: TTAGGACAGC
switch fluorescence ratio: 1.02
//
item-sequence: TGGGATGCAG
switch fluorescence ratio: 1.01
//
item-sequence: TTAATCTTTC
switch fluorescence ratio: 1.09
//
item-sequence: GCGTTTGGCT
switch fluorescence ratio: 0.996
//
item-sequence: GATTCTTAAG
switch fluorescence ratio: 1
//
item-sequence: CCTTGGGGAT
switch fluorescence ratio: 1.11
//
item-sequence: ATCAGACTTG
switch fluorescence ratio: 1.02
//
item-sequence: TCAAGCTTTT
switch fluorescence ratio: 1.01
//
item-sequence: CTAGCGGGGG
switch fluorescence ratio: 0.993
//
item-sequence: TCTGGCGCCG
switch fluorescence ratio: 1.03
//
item-sequence: TTGATTATAT
switch fluorescence ratio: 1.02
//
item-sequence: GTTTTAACAT
switch fluorescence ratio: 0.989
//
item-sequence: CGTATAACTC
switch fluorescence ratio: 1.11
//
item-sequence: ATTTTAATGG
switch fluorescence ratio: 0.991
//
item-sequence: TTTTCTCTTT
switch fluorescence ratio: 1.01
//
item-sequence: ATCAGGGTAC
switch fluorescence ratio: 1.05
//
item-sequence: AATGGGCCGG
switch fluorescence ratio: 1.01
//
item-sequence: CCATATGT
switch fluorescence ratio: 0.985
//
item-sequence: GGGAAGGGCA
switch fluorescence ratio: 1.01
//
item-sequence: ACGTAGCATG
switch fluorescence ratio: 2.46
//
item-sequence: CTCGGTGAGG
switch fluorescence ratio: 0.991
//
item-sequence: CAATTATGTA
switch fluorescence ratio: 0.963
//
item-sequence: TGTAACGAAA
switch fluorescence ratio: 1.01
//
item-sequence: GCCAAACGGG
switch fluorescence ratio: 1.13
//
item-sequence: CTTGTTTAAC
switch fluorescence ratio: 0.993
//
item-sequence: AATAGGGGGG
switch fluorescence ratio: 1.01
